Test system: Sonic hedgehog protein (Shh)
assaySummary: Sonic hedgehog microarray binding compounds – biochemical, small-molecule microarray, 635/667 nm fluorescence, primary screen (AID 1151);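 note: Shh protein binding to compounds spotted on small-molecule microarray slides; score combines spot fluorescence intensity with signal-to-noise across triplicate slides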
testSettings: 635 nm fluorescence, higher = more signal
Outcome: T for composite z-score of at least -0.03; F for anything lower.

molecule | answerLabel
[N-]=[N+]=NCc1ccccc1[C@@H]1OC(c2ccc(OCCCO)cc2)=N[C@]1(CCS(=O)(=O)c1ccccc1)C(N)=O | T
C[N+](C)(C)CCCC[C@@H]1NC(=O)[C@@H]2C[C@H](C(=O)NCCCCCCNC(=O)CS)[C@H](c3ccc(O)cc3)N2C1=O | T
CCOC(=O)C[C@H]1[C@H](OC(=O)c2ccc(-c3ccccc3)cc2)[C@@H](NC(=O)c2ccccc2)c2cc(OCCCO)ccc2N1C(=O)c1ccc2ccccc2n1 | F
COc1ccc([Si](C)(C)[C@@H]2[C@@H](CCn3cc([C@H](O)c4ccccc4)nn3)O[C@]3(C(=O)N(Cc4cccc(N5CCC5=O)c4)c4ccccc43)[C@H]2C)cc1 | T
CN1C(=O)C2C=CC(C(O)c3ccc(F)cc3)N(N(c3ccccc3)c3ccccc3)C2C1=O (stereo not given) | F
CC1CC/C=C\[C@H]2OC34C=CCN(c5ccc6ccccc6c5)C(=O)[C@H]3N(CCO)C(=O)[C@@H]4C2C(=O)O1 (stereo not given in full) | T
O=C(NCc1ccccc1)[C@@H]1c2ccccc2C(=O)N(C2Cc3ccccc3C2)[C@H]1c1ccc(CO)cc1 | T
C=CCN1Cc2ccccc2[C@@H]2OC(c3ccc(OCCCO)cc3)=N[C@]2(CCS(=O)(=O)c2ccccc2)C1=O | T
CCCCCN1CC=CC23O[C@@H]4C=CCOC(=O)[C@@H]4[C@H]2C(=O)N(C(C)CO)[C@@H]3C1=O (stereo not given in full) | F
C=CCNC(=O)[C@@H]1[C@H]2C(=O)O[C@H](c3ccccc3)[C@H](c3ccccc3)N2[C@H](c2ccc(OCCO)cc2)[C@@]12C(=O)N(C(=O)OCCOC)c1ccc(C#CCNC(N)=O)cc12 | T
CCCCN1CC=CC23O[C@@H]4C=CCOC(=O)[C@@H]4[C@H]2C(=O)N(CCCCCCO)[C@@H]3C1=O (stereo not given in full) | F
O=C1O[C@@H](c2ccccc2)[C@@H](c2ccccc2)N2[C@@H](c3ccccc3OCCO)[C@]3(C(=O)Nc4ccccc43)[C@@H](C(=O)O)[C@H]12 | T
C=C(CCCC)/C(=C/C[C@H](OC(C)=O)c1ccc(OCCO)cc1)c1cnc2ccccc2c1 | T
O=C1C2C=CC(C(O)c3c(F)cccc3Cl)N(Nc3ccccc3F)C2C(=O)N1c1ccccc1 (stereo not given) | F
O=C1OCC=C[C@H]2OC34C=CCN(Cn5nnc6ccccc65)C(=O)[C@H]3N(CCCCCO)C(=O)[C@@H]4[C@@H]12 (stereo not given in full) | F

* * *

assaySummary: probe aInhba binding on compound microarray – biochemical, small-molecule microarray, 635/667 nm fluorescence, primary screen (AID 1148);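 note: score merges 667nm spot fluorescence with signal-to-noise for antibody binding to printed compounds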
testSettings: higher = more signal
// thresholds for composite z-score classes: range A: < -0.07; range B: ≥ -0.07 and < 0.02; range C: ≥ 0.02

compound | answerLabel
CC(C)C(=C=CC[C@H](O)c1ccc(CO)o1)CCO | range A
OCC1C=C(/C=C/c2ccccc2)CN1Cc1ccccc1Br (configuration not stated) | range C
O=C1O[C@@H](c2ccccc2)[C@@H](c2ccccc2)N2[C@@H](c3ccc(OCCO)cc3)[C@]3(C(=O)Nc4ccc(C#CCCO)cc43)[C@@H](C(=O)NC[C@H](O)c3ccccc3)[C@H]12 | range C
CCN(CC)c1ccc(N2CC=CC34O[C@@H]5/C=C\CCC(C)OC(=O)C5[C@H]3C(=O)N(CCCCCO)[C@@H]4C2=O)cc1 (some centres not stated) | range B
O=C1NC(=O)C2C1C=CC(C(O)C=Cc1ccc([N+](=O)[O-])cc1)N2Nc1ccc(Cl)cc1Cl (configuration not stated) | range C
C=CC[C@]1(C(N)=O)N=C(c2ccc(OCCCO)cc2)O[C@H]1c1ccccc1 | range A
COCCCNC(=O)[C@@]1(Cc2ccccc2CN=[N+]=[N-])N=C(c2ccc(OCCCO)cc2)O[C@H]1c1ccccc1CN=[N+]=[N-] | range B
[N-]=[N+]=NCc1ccccc1[C@@H]1OC(c2ccc(OCCCO)cc2)=N[C@]1(CCS(=O)(=O)c1ccccc1)C(=O)N1CCOCC1 | range C
C=CCNC(=O)[C@H]1[C@@H]2C(=O)O[C@@H](c3ccccc3)[C@@H](c3ccccc3)N2[C@@H](c2ccc(OCCO)cc2)[C@]12C(=O)Nc1ccc(C#CCC(C(=O)OC)C(=O)OC)cc12 | range C
CC(=O)Nc1cc(Br)ccc1C(=O)NCc1ccccc1 | range A
O=C1OCCC/C=C\[C@H]2OC34C=CCN(c5ccc6ccccc6c5)C(=O)[C@H]3N(CCCCCO)C(=O)[C@@H]4C12 (some centres not stated) | range A
COCC(=C=CC[C@H](O)c1cccc(OCCO)c1)CCO | range A
CCCNC(=O)[C@@]1(Sc2ccc(C)cc2)CC(=O)N(Cc2ccccc2C(F)(F)F)[C@@H]1c1ccc(CO)cc1I | range B
O=C1O[C@@H](c2ccccc2)[C@@H](c2ccccc2)N2[C@@H](c3ccccc3OCCO)[C@]3(C(=O)Nc4ccc(C#CC5(O)CCCCCC5)cc43)[C@@H](C(=O)N3CCN(c4ncccn4)CC3)[C@H]12 | range B
COC(=O)c1c(CC[C@@H](CO)NC(=O)N[C@@H](Cc2ccccc2)Cn2cc(-c3ccccn3)nn2)oc(C(=O)N2CCOCC2)c1C(=O)OC | range B
O=C1NC(=O)C2C1C=CC(C(O)c1ccc(I)cc1)N2Nc1ccccn1 (configuration not stated) | range B

* * *

composite z-score values for the molecules below.
targetEntity: Focal adhesion kinase 1 (Homo sapiens)
assaySummary: PTK2 protein binding on printed compound slides – biochemical, small-molecule microarray, 635/667 nm fluorescence, BSA, DTT, primary screen (AID 1130);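 note: composite of spot emission at 667 nm and signal to noise over triplicate slides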
testSettings: 635 nm fluorescence, higher = more signal

smilesCode | targetEntity | composite z-score
COC(=O)[C@H](Cc1ccccc1)N[C@H](/C=C/C1CC1)[C@@H](O)Cc1ccccc1 | Focal adhesion kinase 1 (Homo sapiens) | -0.295
C=CC[C@]1(C(N)=O)COC(c2ccc(OCCCO)cc2)=N1 | Focal adhesion kinase 1 (Homo sapiens) | 0.2
COC(=O)[C@@]1(Cc2ccc(OC)cc2)[C@H]2c3cc(C(=O)N4CCCC4)n(CCCNc4ncc(C(F)(F)F)cc4Cl)c3C[C@H]2CN1C(=O)c1ccccc1 | Focal adhesion kinase 1 (Homo sapiens) | 1.1
[N-]=[N+]=NCc1ccccc1[C@@H]1OC(c2ccc(OCCCO)cc2)=N[C@]1(CCS(=O)(=O)c1ccccc1)C(=O)N1CCCCC1 | Focal adhesion kinase 1 (Homo sapiens) | 0.0201

* * *

targetEntity: Streptavidin (Streptomyces avidinii) (UniProt P22629)
Sequence (P22629 whole entry, looked up): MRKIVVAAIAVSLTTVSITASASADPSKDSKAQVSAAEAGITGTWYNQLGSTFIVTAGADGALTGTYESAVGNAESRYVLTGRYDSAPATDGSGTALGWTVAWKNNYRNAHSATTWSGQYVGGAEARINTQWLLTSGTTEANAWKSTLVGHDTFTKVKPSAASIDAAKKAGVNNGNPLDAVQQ
assaySummary: compounds binding control protein streptavidin – biophysical, small-molecule microarray, 635/667 nm fluorescence, artefact control for SMM compound annotation, primary screen (AID 1147);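 note: signal reflects streptavidin binding to arrayed compounds as a control protein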
testSettings: higher = more signal
Outcome: label 1 for composite z-score of at least 0.08; label 0 for anything lower.

compound | answerLabel
C#CCNCc1ccccc1 | label 1
COc1ccc(CCNC(=O)[C@@]2(C)c3ccccc3C(=O)N(c3ccc(C)cn3)[C@H]2c2ccc(CO)cc2)cc1 | label 0
C=CCN1C(=O)[C@]2(O[C@H](CCO)[C@@H]([Si](C)(C)c3ccc(OC)cc3)[C@@H]2C)c2cc(N(C=O)c3ccccc3)ccc21 | label 0
CCOC(=O)C[C@H]1[C@H](OC(=O)c2ccc(C(=O)c3ccccc3)cc2)[C@@H](NC(=O)Cc2ccc(OC)cc2)c2cc(OCCCO)ccc2N1C(=O)c1ccc2ccccc2n1 | label 1
CN(C)CCCCCCNC(=O)[C@@H]1C[C@@H]2C(=O)N[C@@H](CCCC[N+](C)(C)C)C(=O)N2[C@@H]1c1ccc(O)cc1 | label 0
[N-]=[N+]=Nc1ccccc1C[C@]1(C(=O)NCC(O)CO)N=C(c2ccc(OCCCO)cc2)O[C@H]1c1ccccc1 (stereo partly drawn) | label 1
[N-]=[N+]=NCc1ccccc1[C@H]1OC(c2ccc(OCCCO)cc2)=N[C@@]1(Cc1ccccc1)C(=O)N1CCCCC1 | label 1

* * *

assaySummary: probe aEGFR binding to arrayed compounds – biochemical, biotinylated probe, 635/667 nm fluorescence, primary screen (AID 1097);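 note: probe is a biotinylated anti-EGFR antibody binding compounds printed on slides; score combines fluorescence near 667 nm and signal to noise of each spot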
testSettings: small-molecule microarray, higher = more signal
Outcome: label 1 for composite z-score of at least -0.03; label 0 for anything lower.

compound | answerLabel
CN1C(=O)C2C=CC(C(O)c3ccc(F)cc3)N(N(c3ccccc3)c3ccccc3)C2C1=O (stereo not given) | label 1
CCOC(=O)C[C@H]1[C@H](OC(=O)c2ccc(-c3ccccc3)cc2)[C@@H](NC(=O)c2ccccc2)c2cc(OCCCO)ccc2N1C(=O)c1ccc2ccccc2n1 | label 1
CN(C)C(=O)[C@]1(Cc2ccccc2)N=C(c2ccc(OCCCO)cc2)O[C@@H]1c1ccccc1N=[N+]=[N-] | label 1
Cc1ccc(/C=C/C=O)cc1 | label 0
COC(=O)c1c2oc(c1C(=O)OC)C(=O)N[C@@H](C(C)C)Cn1cc(nn1)C1(CCCCC1)NC(=O)N[C@H](CO)CC2 | label 0
CCCCCN1CC=CC23O[C@@H]4C=CCOC(=O)[C@@H]4[C@H]2C(=O)N(C(C)CO)[C@@H]3C1=O (stereo not given in full) | label 0
O=C1O[C@H](c2ccccc2)[C@H](c2ccccc2)N2[C@H]1[C@@H](C(=O)NC[C@H](O)c1ccccc1)[C@]1(C(=O)Nc3ccccc31)[C@H]2c1ccc(O)cc1 | label 0
CCOC(=O)C[C@H]1[C@H](OC(=O)c2ccc(-c3ccccc3)cc2)[C@@H](NC(=O)c2ccccc2)c2cc(OCCCO)ccc2N1C(=O)Cc1ccc(OC)cc1 | label 0
COc1ccc([Si](C)(C)[C@@H]2[C@@H](CCn3cc([C@H](O)c4ccccc4)nn3)O[C@]3(C(=O)N(Cc4cccc(N5CCC5=O)c4)c4ccccc43)[C@H]2C)cc1 | label 1
O=C1NC(=O)C2C1C=CC(C(O)C1CC=CCC1)N2Nc1ccccn1 (stereo not given) | label 1
O=C(O)[C@H]1C[C@H]2C(=O)N3CCC[C@H]3C(=O)N2[C@H]1c1ccc(O)cc1 | label 0
NCCCCCCNC(=O)[C@H]1C[C@H]2C(=O)N[C@@H](Cc3ccccc3)C(=O)N2[C@H]1c1cccc(OCCO)c1 | label 1
[N-]=[N+]=NCc1ccccc1[C@@H]1OC(c2ccc(OCCCO)cc2)=N[C@]1(CCS(=O)(=O)c1ccccc1)C(=O)N1CCCCC1 | label 1
COC(=O)[C@@]1(CCC(=O)OC(C)(C)C)N=C(c2ccc(OCCCO)cc2)O[C@H]1c1ccccc1 | label 0
O=C1C2C=CC(C(O)C=Cc3ccc([N+](=O)[O-])cc3)N(n3cnnc3)C2C(=O)N1Cc1ccccc1 (stereo not given) | label 0
